# Test Method Notes: Determination of the log P values by HPLC (formic acid method)
# Type: physicochemical
# Measurement Setup: reversed-phase column (C 18), acidic range (pH 3.4), 55° C.
Measurement Kind: log P

> print(dat)
                                    compound   val
 1    O=C(Nc1ccn(-c2c(F)cccc2F)n1)c1ncncc1Cl  2.14
 2      O=C(Nc1ccn(-c2ccccc2Br)n1)c1ccccc1Cl  2.83
 3         O=C(Nc1cnn(-c2ncccc2F)n1)c1ccsc1I  2.20
 4      O=C(Nc1ccn(-c2cccnc2Cl)n1)c1ccccc1Cl  2.13
 5        O=C(Nc1ccn(-c2ncccn2)n1)c1ccccc1Br  1.72
 6  O=C(Nc1ccn(-c2ccccc2Cl)n1)c1cccnc1OC(F)(F)F  3.10
 7       O=C(Nc1cnn(-c2ncccc2F)n1)c1ccccc1Br  2.04
 8      N#Cc1ccccc1-n1ccc(NC(=O)c2ccccc2I)n1  2.53
 9  O=C(Nc1cnn(-c2ccc(C(F)(F)F)cn2)n1)c1ccccc1C(F)(F)F  3.02
10   N#Cc1c(F)cccc1-n1ccc(NC(=O)c2ccccc2I)n1  2.63
11        O=C(Nc1ccn(-c2nccnc2F)n1)c1ccccc1I  2.18
12     Cc1cc(NC(=O)c2ccccc2Br)nn1-c1ccccc1Cl  2.45
13  O=C(Nc1ccn(-c2ccccc2[N+](=O)[O-])n1)c1ccccc1I  2.61
14  CC(C)c1nn(C)c(C(=O)Nc2ccn(-c3ncc(F)cc3F)n2)c1[N+](=O)[O-]  2.72
15  O=C(Nc1nn(-c2ccccc2Br)nc1Cl)c1cccnc1C(F)(F)F  2.77
16  O=C(Nc1ccn(-c2c(F)cccc2F)n1)c1cccnc1C(F)(F)F  2.68
17  O=C(Nc1cnn(-c2c(F)cccc2F)n1)c1cnccc1C(F)(F)F  2.36
18  O=C(Nc1nn(-c2ncc(F)cc2F)cc1F)c1ccccc1C(F)(F)F  2.44
19  O=C(Nc1ccn(-c2cncc(F)n2)n1)c1ccccc1C(F)(F)F  3.33
20  O=C(Nc1ccn(-c2ccccc2C(F)(F)F)n1)c1ccccc1Cl  2.92
21  Cc1noc(C(F)(F)F)c1C(=O)Nc1ccn(-c2ncc(F)cc2F)n1  2.61
22  Cn1nc(C(F)(F)F)c(C(=O)Nc2ccn(-c3c(F)cccc3F)n2)c1C(F)(F)F  2.99
23    O=C(Nc1nn(-c2ccccc2Cl)cc1Br)c1ccccc1Cl  2.99
24  CCC(C)n1ncc(Cl)c1C(=O)Nc1ccn(-c2ncc(F)cc2F)n1 (stereo not drawn)  3.37
25  O=C(Nc1ccn(-c2ncc(Cl)cc2Cl)n1)c1c(F)cccc1F  2.77
26  O=C(Nc1ccn(-c2cccc(F)c2F)n1)c1ccccc1C(F)(F)F [Compound I-1-62]  3.07
27  Cc1nn(C)c(C)c1C(=O)Nc1ccn(-c2c(F)cccc2F)n1  1.77
28  O=C(Nc1ccn(-c2ncc(Cl)cc2Cl)n1)c1cccnc1Br  2.29
29  O=C(Nc1ccn(-c2ncc(F)cc2F)n1)C1=C(C(F)F)OCCS1  2.31
30      Cn1cncc1C(=O)Nc1ccn(-c2c(F)cccc2F)n1  0.99
31  O=C(Nc1ccn(-c2nccc(-c3ccc(F)cc3)c2F)n1)c1ccccc1C(F)(F)F  3.40
32  Cn1nc(C(F)(F)F)c(C(=O)Nc2ccn(-c3c(F)cccc3F)n2)c1F  2.53
33  Cc1nn(C)c(C(=O)Nc2ccn(-c3c(F)cccc3F)n2)c1[N+](=O)[O-]  2.23
34       Cc1ccccc1C(=O)Nc1ccn(-c2ccccc2Cl)n1  2.86
35  O=C(Nc1cnn(-c2ncc(F)cc2F)n1)c1ccccc1C(F)(F)F  2.43
36     O=C(Nc1ccn(-c2c(F)cccc2F)c1)c1ccccc1I  2.96
